Value source: ChEMBL document CHEMBL3352214

tested on: T47D; assay: Growth inhibition of human T47D cells at 10^-5 M after 48 hrs by SRB assay; assay type: functional; conditions: Homo sapiens, T47D, 48 h; read-out: GI
# label = Condition met if inhibition of growth at 10 µM >= 5% else Condition not met

Worked examples follow.
{"Smiles String": "CCOC(=O)c1cc(C(=O)c2cc(OC)c(OC)c(OC)c2)n2cccc(C#N)c12", "Assigned Category": "Condition met"}
{"Smiles String": "CCOC(=O)c1cc(C(=O)c2cc(OC)c(OC)c(OC)c2)n2cc(C)cc(C)c12", "Assigned Category": "Condition met"}
{"Smiles String": "COC(=O)c1c(C(=O)OC)c2cc(C)ccn2c1C(=O)c1cc(OC)c(OC)c(OC)c1", "Assigned Category": "Condition not met"}

Asked: Entry CCOC(=O)c1cc(C(=O)c2ccc(OC)c(OC)c2)n2ccc(OC)cc12 : is its inhibition of growth at 10 µM no less than 5%?
Given back: Condition not met
